Tested on: MeWo
ASSAY PROTOCOL: Photocytotoxicity, MTT assay
Assay type: cell-based, human
CONDITION DESCRIPTION: Homo sapiens, MeWo, light or radiation study, read-out: IC50 MeWo No CoCl2
READOUT TYPE: IC50 (nM)
Value expressed in nM; do not type the unit.

// Input: CCCCCCCCCCCCCCCCCC(=O)Nc1ccc(-c2c3nc(c(-c4ccc[n+](C)c4)c4ccc([nH]4)c(-c4ccc[n+](C)c4)c4nc(c(-c5ccc[n+](C)c5)c5ccc2[nH]5)C=C4)C=C3)cc1.[Cl-].[Cl-].[Cl-] . Output its IC50 only.
330

###

System: A375
ASSAY PROTOCOL: Photocytotoxicity, MTT assay
Assay type: cell-based, human
CONDITION DESCRIPTION: red light 643 nm 30 min, normoxia
READOUT TYPE: SI (IC50 (HDF) / IC50 (melanoma cells)) A375 No CoCl2
# print the numeric value only

Recall the reported SI (IC50 (HDF) / IC50 (melanoma cells)) A375 No CoCl2 of CCCCCCCCCCCCCCCCCC(=O)Nc1ccc(-c2c3nc(c(-c4ccc[n+]([O-])c4)c4ccc([nH]4)c(-c4ccc[n+]([O-])c4)c4nc(c(-c5ccc[n+]([O-])c5)c5ccc2[nH]5)C=C4)C=C3)cc1 [TOPyP3-C17H35] when tested on A375.
1.7

Recall the reported SI (IC50 (HDF) / IC50 (melanoma cells)) A375 No CoCl2 of CCCCCCCCCCCCCC(=O)Nc1ccc(-c2c3nc(c(-c4ccc[n+]([O-])c4)c4ccc([nH]4)c(-c4ccc[n+]([O-])c4)c4nc(c(-c5ccc[n+]([O-])c5)c5ccc2[nH]5)C=C4)C=C3)cc1 [TOPyP3-C13H27] when tested on A375.
1.1

Recall the reported SI (IC50 (HDF) / IC50 (melanoma cells)) A375 No CoCl2 of CCCCCCCCCC(=O)Nc1ccc(-c2c3nc(c(-c4ccc[n+](C)c4)c4ccc([nH]4)c(-c4ccc[n+](C)c4)c4nc(c(-c5ccc[n+](C)c5)c5ccc2[nH]5)C=C4)C=C3)cc1 [TMPyP3-C9H19] when tested on A375.
10.6

###

Test system: A375
ASSAY PROTOCOL: Photocytotoxicity, MTT assay
Type: cell-based, human
CONDITION DESCRIPTION: 6 h incubation, red light 643 nm 30 min, 3.6 J/cm^2, normoxia; read-out: IC50 A375 No CoCl2
Could you please report measured pIC50 for the items listed next?
Scale for pIC50: -log10 of concentration given in mol/L; no unit attached.

// Input: CCCCCCCCCCCCCC(=O)Nc1ccc(-c2c3nc(c(-c4ccc[n+](C)c4)c4ccc([nH]4)c(-c4ccc[n+](C)c4)c4nc(c(-c5ccc[n+](C)c5)c5ccc2[nH]5)C=C4)C=C3)cc1 . Output its pIC50 only.
6.82

// Input: CCCCCCCCCC(=O)Nc1ccc(-c2c3nc(c(-c4ccc[n+](C)c4)c4ccc([nH]4)c(-c4ccc[n+](C)c4)c4nc(c(-c5ccc[n+](C)c5)c5ccc2[nH]5)C=C4)C=C3)cc1 . Output its pIC50 only.
6.17

###

ASSAY PROTOCOL: UV-Vis absorption spectra in MeOH
Assay type: physicochemical
READOUT TYPE: λabs Qx (0-0)

// Input: CCCCCCCCCC(=O)Nc1ccc(-c2c3nc(c(-c4ccc[n+]([O-])c4)c4ccc([nH]4)c(-c4ccc[n+]([O-])c4)c4nc(c(-c5ccc[n+]([O-])c5)c5ccc2[nH]5)C=C4)C=C3)cc1 . Output its λabs Qx (0-0) only.
645 nm

// Input: CC(=O)Nc1ccc(-c2c3nc(c(-c4ccc[n+]([O-])c4)c4ccc([nH]4)c(-c4ccc[n+]([O-])c4)c4nc(c(-c5ccc[n+]([O-])c5)c5ccc2[nH]5)C=C4)C=C3)cc1 . Output its λabs Qx (0-0) only.
645 nm

// Input: CCCCCCCCCCCCCC(=O)Nc1ccc(-c2c3nc(c(-c4ccc[n+]([O-])c4)c4ccc([nH]4)c(-c4ccc[n+]([O-])c4)c4nc(c(-c5ccc[n+]([O-])c5)c5ccc2[nH]5)C=C4)C=C3)cc1 . Output its λabs Qx (0-0) only.
646 nm

// Input: CCCCCCCCCCCCCCCCCC(=O)Nc1ccc(-c2c3nc(c(-c4ccc[n+]([O-])c4)c4ccc([nH]4)c(-c4ccc[n+]([O-])c4)c4nc(c(-c5ccc[n+]([O-])c5)c5ccc2[nH]5)C=C4)C=C3)cc1 . Output its λabs Qx (0-0) only.
646 nm

###

ASSAY PROTOCOL: UV-Vis absorption spectra in MeOH
Format: physicochemical
READOUT TYPE: ε Soret (B)
For clarity, give the value followed by its unit.

// Input: CCCCCCCCCC(=O)Nc1ccc(-c2c3nc(c(-c4ccc[n+]([O-])c4)c4ccc([nH]4)c(-c4ccc[n+]([O-])c4)c4nc(c(-c5ccc[n+]([O-])c5)c5ccc2[nH]5)C=C4)C=C3)cc1 . Output its ε Soret (B) only.
296400 M⁻¹ cm⁻¹

// Input: CCCCCCCCCCCCCCCCCC(=O)Nc1ccc(-c2c3nc(c(-c4ccc[n+]([O-])c4)c4ccc([nH]4)c(-c4ccc[n+]([O-])c4)c4nc(c(-c5ccc[n+]([O-])c5)c5ccc2[nH]5)C=C4)C=C3)cc1 . Output its ε Soret (B) only.
275400 M⁻¹ cm⁻¹

// Input: CC(=O)Nc1ccc(-c2c3nc(c(-c4ccc[n+]([O-])c4)c4ccc([nH]4)c(-c4ccc[n+]([O-])c4)c4nc(c(-c5ccc[n+]([O-])c5)c5ccc2[nH]5)C=C4)C=C3)cc1 . Output its ε Soret (B) only.
346900 M⁻¹ cm⁻¹

// Input: CCCCCCCCCCCCCC(=O)Nc1ccc(-c2c3nc(c(-c4ccc[n+]([O-])c4)c4ccc([nH]4)c(-c4ccc[n+]([O-])c4)c4nc(c(-c5ccc[n+]([O-])c5)c5ccc2[nH]5)C=C4)C=C3)cc1 . Output its ε Soret (B) only.
364600 M⁻¹ cm⁻¹

###

Could you please report measured λabs Qx (1-0) for the items listed next?
ASSAY PROTOCOL: UV-Vis absorption spectra in MeOH
Assay type: physicochemical
Protocol: The absorption spectra of (oxidopyridyl)porphyrins were recorded in HPLC grade MeOH on a Cary UV 60 (Agilent Technologies, Santa Clara, CA, USA), in a wavelength range of 300–700 nm. The fluorescence spectra in HPLC grade MeOH were recorded on a Cary Eclipse (Agilent Technologies) in a wavelength range of 500–800 nm after excitation at the Soret band wavelength (λ ~ 420 nm). […] To calculate the fluorescence quantum yields, the measurements were conducted on an FS5 Edinburgh Instruments spectrometer. […]
Value expressed in nm; do not type the unit.

// Input: CCCCCCCCCCCCCC(=O)Nc1ccc(-c2c3nc(c(-c4ccc[n+]([O-])c4)c4ccc([nH]4)c(-c4ccc[n+]([O-])c4)c4nc(c(-c5ccc[n+]([O-])c5)c5ccc2[nH]5)C=C4)C=C3)cc1 [TOPyP3-C13H27] . Output its λabs Qx (1-0) only.
588

// Input: CC(=O)Nc1ccc(-c2c3nc(c(-c4ccc[n+]([O-])c4)c4ccc([nH]4)c(-c4ccc[n+]([O-])c4)c4nc(c(-c5ccc[n+]([O-])c5)c5ccc2[nH]5)C=C4)C=C3)cc1 [TOPyP3-CH3] . Output its λabs Qx (1-0) only.
588

// Input: CCCCCCCCCCCCCCCCCC(=O)Nc1ccc(-c2c3nc(c(-c4ccc[n+]([O-])c4)c4ccc([nH]4)c(-c4ccc[n+]([O-])c4)c4nc(c(-c5ccc[n+]([O-])c5)c5ccc2[nH]5)C=C4)C=C3)cc1 [TOPyP3-C17H35] . Output its λabs Qx (1-0) only.
587

// Input: CCCCCCCCCC(=O)Nc1ccc(-c2c3nc(c(-c4ccc[n+]([O-])c4)c4ccc([nH]4)c(-c4ccc[n+]([O-])c4)c4nc(c(-c5ccc[n+]([O-])c5)c5ccc2[nH]5)C=C4)C=C3)cc1 [TOPyP3-C9H19] . Output its λabs Qx (1-0) only.
588

###

ASSAY PROTOCOL: UV-Vis absorption spectra in MeOH
Type: physicochemical
READOUT TYPE: λabs Qy (1-0) (nm)
Value expressed in nm; do not type the unit.

// Input: CC(=O)Nc1ccc(-c2c3nc(c(-c4ccc[n+]([O-])c4)c4ccc([nH]4)c(-c4ccc[n+]([O-])c4)c4nc(c(-c5ccc[n+]([O-])c5)c5ccc2[nH]5)C=C4)C=C3)cc1 . Output its λabs Qy (1-0) only.
510

// Input: CCCCCCCCCCCCCC(=O)Nc1ccc(-c2c3nc(c(-c4ccc[n+]([O-])c4)c4ccc([nH]4)c(-c4ccc[n+]([O-])c4)c4nc(c(-c5ccc[n+]([O-])c5)c5ccc2[nH]5)C=C4)C=C3)cc1 . Output its λabs Qy (1-0) only.
512

// Input: CCCCCCCCCCCCCCCCCC(=O)Nc1ccc(-c2c3nc(c(-c4ccc[n+]([O-])c4)c4ccc([nH]4)c(-c4ccc[n+]([O-])c4)c4nc(c(-c5ccc[n+]([O-])c5)c5ccc2[nH]5)C=C4)C=C3)cc1 . Output its λabs Qy (1-0) only.
512

// Input: CCCCCCCCCC(=O)Nc1ccc(-c2c3nc(c(-c4ccc[n+]([O-])c4)c4ccc([nH]4)c(-c4ccc[n+]([O-])c4)c4nc(c(-c5ccc[n+]([O-])c5)c5ccc2[nH]5)C=C4)C=C3)cc1 . Output its λabs Qy (1-0) only.
512

From: paper PMC12382614
